System: NIH3T3
Test: Induction of apoptosis in Swiss mouse 3T3 cells assessed as appearance of apoptotic morphology at 100 uM injected directly into intact cells after 3 hrs by Hoechst 33342 staining-based fluorescence microscopy in presence of esterase
Assay type: cell-based
Details: nih3t3, 3 h
Starred links: 1 amine or outer side, 2 acyl side, 3 side chain; linkers in the order of their positions; H or OH if unused. Positions of bridges follow the written chain, without caps; N, C: chain ends. Non-standard residues stand in square brackets, D forms with d. Residues, ends and D or L forms follow the SMILES beside them. Adda = CO[C@@H](Cc1ccccc1)[C@@H](C)/C=C(C)/C=C/[C@H](N[*:1])[C@H](C)C(=O)[*:2]; dAsp(3S-Me) = C[C@H](C(=O)[*:3])[C@@H](N[*:1])C(=O)[*:2]; d(γGlu) = O=C(O)[C@@H](CCC(=O)[*:2])N[*:1]; NMeDha = C=C(NC)C(=O)O
parameter: Activity

compound	experimental-system	endpoint-result
C=C1C(=O)N[C@H](C)C(=O)N[C@@H](CC(C)C)C(=O)N[C@@H](C(=O)O)[C@H](C)C(=O)N[C@@H](CCCNC(=N)N)C(=O)N[C@@H](/C=C/C(C)=C/[C@H](C)[C@H](Cc2ccccc2)OC)[C@H](C)C(=O)N[C@@H](C(=O)O)CCC(=O)N1C [MICROCYSTIN-LR] (R[Adda][d(γGlu)][NMeDha][dA]L[dAsp(3S-Me)]-OH; lactam N-7)	NIH3T3	Toxic
C/C=C1/C(=O)N[C@@H](C(=O)O)[C@H](C)C(=O)N[C@@H](CCCNC(=N)N)C(=O)N[C@@H](/C=C/C(C)=C/[C@H](C)[C@H](Cc2ccccc2)OC)[C@H](C)C(=O)N[C@@H](C(=O)O)CCC(=O)N1C	NIH3T3	Toxic
C/C=C1/NC(=O)CC[C@H](C(=O)OCOC(C)=O)NC(=O)[C@@H](C)[C@H](/C=C/C(C)=C/[C@H](C)[C@H](Cc2ccccc2)OC)NC(=O)[C@H](CCCNC(=N)N)NC(=O)[C@@H](C)[C@H](C(=O)OCOC(C)=O)NC1=O	NIH3T3	Toxic
